Here, each record is paired with measured IC50 data.
biological target: recombinant human MMP-13 (Homo sapiens); construct: made in house; host or cells: baculovirus (pBlueBac4 / Bac-N-Blue; virus made in Sf9), expressed in High-Five insect cells; culture supernatant used; experiment: Assay of MMP-13 inhibiting activity (fluorogenic peptide substrate); assay type: biochemical; conditions: Table 3; 37° C., 2 hours
In your response, the unit should come after the numeric value.

Here are 5 molecules together with their reported answers.
Q: Consider the molecule CCOC(=O)CCNC(=O)S[C@@H]1CC(=O)N(Cc2ccc(Oc3ccccc3)cc2)C1 [Example 60] and give its measured IC50.
Result: 0.0009 µM

Q: So what does the record say about IC50 for CCOC(=O)CC(=O)S[C@@H]1CC(=O)N(Cc2ccc(Oc3ccccc3)cc2)C1 [Example 71] ?
Result: 0.00089 µM

Q: Form field: reported IC50 of O=C1CC(S)CN1Cc1ccc(Oc2ccccc2)cc1 (stereo not shown) [Example 17]
Result: 0.005 µM

Q: GET /values?readout=IC50&item= CCCCC(=O)SC1CC(=O)N(Cc2ccc(Oc3ccccc3)cc2)C1 (stereo not shown) [Example 66]
Result: 0.001 µM

Q: Given the entry O=C(SC1CC(=O)N(Cc2ccc(Oc3ccccc3)cc2)C1)c1ccccc1 (stereo not shown) [Example 16] , report its measured IC50.
Result: 0.002 µM

Shifting focus to the molecule that follows.
Q: State the recorded IC50 for this entry: O=C1CC(SCCS(=O)(=O)c2ccccc2)CN1Cc1ccc(Oc2ccccc2)cc1 (stereo not shown) [Example 97]
Result: 2 µM
